The compounds listed here are annotated with their log10(fluorescence lifetime).
# method summary: solvent given as SMILES
# test parameters: in ClC(Cl)Cl
assay endpoint: log10(fluorescence lifetime) (log10 of the value in ns)

compound smiles	assay endpoint	readout number
O=C1c2ccccc2-c2ccc(N3CCOCC3)c3cccc1c23	log10(fluorescence lifetime)	1.04
O=S(=O)(/N=c1\oc2cccc3c4c(-c5ccccc5)oc5cccc(c(c1-c1ccccc1)c23)c54)C(F)(F)F	log10(fluorescence lifetime)	0.75
CC1(C)C(/C=C/C2=C(Cl)C(=C/C=C3/N(CCCCS(=O)(=O)[O-])c4ccc5ccccc5c4C3(C)C)/CCC2)=[N+](CCCCS(=O)(=O)[O-])c2ccc3ccccc3c21	log10(fluorescence lifetime)	-0.14
F[B-]1(F)OC(c2cccc(Br)c2)=Cc2c3ccccc3cc[n+]21	log10(fluorescence lifetime)	-0.76
CCOc1ccc2c(-c3nc(-c4ccccc4F)no3)cc(=O)oc2c1	log10(fluorescence lifetime)	0.71
CN(C)c1ccc2nc(/C=C/c3ccccc3)c(=O)oc2c1	log10(fluorescence lifetime)	0.57
O=c1oc2ccccc2cc1-c1cccc(-c2cc3ccccc3oc2=O)c1	log10(fluorescence lifetime)	-0.40
CC(C)(C)c1ccc2c(c1)c1cc(C(C)(C)C)ccc1n2-c1ccc(C#Cc2cccc(C#Cc3ccc(-n4c5ccc(C(C)(C)C)cc5c5cc(C(C)(C)C)ccc54)cc3)c2)cc1	log10(fluorescence lifetime)	0.40
COc1ccc2cc(-c3ccc(-c4cc5ccc(OC)cc5oc4=O)cc3)c(=O)oc2c1	log10(fluorescence lifetime)	0.15
NCc1ccc2ccc3cccc4ccc1c2c34	log10(fluorescence lifetime)	1.58
CN1CCc2cc(C3=Cc4cccc[n+]4[B-](F)(F)O3)ccc21	log10(fluorescence lifetime)	0.49

====

# method summary: solvent given as SMILES
# test parameters: in CCOC(C)=O
The compounds listed here are annotated with their fluorescence lifetime.
assay endpoint: fluorescence lifetime (ns)

compound	readout number
CC1=CC(C)=[N+]2C1=Cc1c3ccccc3c(C#Cc3cccs3)n1[B-]2(F)F	4.07
CNC1=C2C=CC=[N+]2[B-](F)(F)n2cccc21	2.04
CCCCCCOc1ccc2oc3c(c2c1)=CC1=C(c2ccccc2C)c2cc4c5cc(OCCCCCC)ccc5oc4n2[B-](F)(F)[N+]=31	3.81
O=C1c2ccc3c4ccc5c6c(ccc(c7ccc(c2c37)C(=O)N1c1ccncc1)c64)C(=O)N(c1ccncc1)C5=O	1.34
COC(=O)C(Cc1ccc2oc(-c3ccc(Nc4ccccc4)cc3)nc2c1)NC(=O)OC(C)(C)C (stereo not drawn)	2.46
CCN(CC)c1ccc(-c2nc3c(c4c2-c2ccccc2CC4)-c2ccccc2CC3)cc1	0.85
CCN(CC)c1ccc2c(C)cc(=O)oc2c1	3.1
CCN(CC)c1ccc(OC)c(C=O)c1	12.5
CC(=O)Nc1ccc2c3cccc4cccc(c5cccc1c52)c43	3.8
COc1ccc(C2=C3C=CC(C)=[N+]3[B-](F)(F)n3c(C)ccc32)cc1	2.24
CN(C)c1ccc(/C=C2\CC/C(=C\c3ccc(C#N)cc3)C2=O)cc1	0.9
Cc1ccc(C2=C3C=C(I)C=[N+]3[B-](F)(F)n3cccc32)cc1	0.082
CCCCCCCCCCCCCCCCOc1cc(C#Cc2ccc3ccccc3c2-c2c(C#Cc3cc(OCCCCCCCCCCCCCCCC)c(C#Cc4ccc(C=C(C#N)C#N)cc4)cc3OCCCCCCCCCCCCCCCC)ccc3ccccc23)c(OCCCCCCCCCCCCCCCC)cc1C#Cc1ccc(C=C(C#N)C#N)cc1	1.51
